Can you tell me %Inh for the items I'm about to list?
- Tested on: OSR1
- Construct: gene OXSR1
- Assay setup: concentration: 1 μM, replicates: in singlicate; n = 1;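 also: KINOMEscan kinase panel screen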
Kindly report the value followed by its unit.

Query: Fill in %Inh for record Cl.Cl.NC(CNC(=O)c1cc(Br)c(-c2ccnc3[nH]ccc23)s1)c1ccccc1 (stereo not shown)
Reply: 34%

Query: Read off the recorded %Inh for "CCNc1nccc(-c2c(-c3ccc(F)cc3)ncn2C2CCN(C)CC2)n1"
Reply: 0%

Query: Answer with the recorded %Inh for the compound listed here: "CN(C)CCOc1ccc(-c2cc(-c3ccc(Cl)c(O)c3)c(-c3ccncc3)[nH]2)cc1.Cl.Cl"
Reply: 7%

Query: Consider the compound "COc1cccc(-c2nc(-c3ccccc3)[nH]c2-c2ccncc2)c1" and give its recorded %Inh.
Reply: 0%

Query: Specify reported %Inh for the compound shown: "CCn1c(-c2nonc2N)nc2c(-c3ccccc3)ncc(OCCCN)c21.O=C(O)C(F)(F)F.O=C(O)C(F)(F)F"
Reply: 3%

Query: For the compound COc1cc(Nc2nccc(N3CCC(NC(=O)Nc4ccc5c(c4)OCO5)C3)n2)cc(OC)c1OC (stereo not shown) , give its measured %Inh value.
Reply: 0%

Query: Note down %Inh recorded for "Cc1ccc(O)cc1Nc1ccnc2cc(-c3ccc(CN4CCCCC4)o3)ccc12"
Reply: 0%

Query: In one line, give reported %Inh of the entry "COc1cccc(CC(=O)N2CCc3cc(-c4cn(C)c5ncnc(N)c45)ccc32)c1" .
Reply: 6%

Query: Check the records and state %Inh for "COc1cc(Nc2nccc(N3CCC(NS(=O)(=O)c4ccc(NC(C)=O)cc4)CC3)n2)cc(OC)c1OC"
Reply: 19%

Query: Indicate its recorded %Inh; the compound in question is "O=C(O)C(F)(F)F.O=c1[nH]ccc2nc(N[C@@H]3CCNC3)nc(Nc3cc(Cl)cc(Cl)c3)c12"
Reply: 54%

Query: Specify measured %Inh for "Cc1cccc(Nc2nc(NCCN)ncc2C(N)=O)c1" .
Reply: 15%

Query: Note %Inh for the compound shown: "Cc1cc(-c2ccnc(Nc3cccc(C#N)c3)n2)cc(C)c1O"
Reply: 13%

Query: Return %Inh (reported value) for this compound: "O=C(O)C(F)(F)F.O=c1[nH]ccc2nc(N[C@@H]3CCNC3)nc(Nc3ccc4c(c3)S(=O)(=O)CC4)c12"
Reply: 76%

Query: Quote %Inh reported for "CC(C)(C)c1ccc(C(=O)Nc2cn3cc(-n4ccnc4)ccc3n2)cc1" please.
Reply: 0%

Query: Annotate the compound NCCC(NC(=O)c1cc(Br)c(-c2ccnc3[nH]ccc23)s1)c1ccccc1.O=C(O)C(F)(F)F.O=C(O)C(F)(F)F (stereo not shown) with its measured %Inh.
Reply: 10%

Query: Given the compound "Cc1ccccc1CC(=O)N1CCc2cc(-c3cn(C)c4ncnc(N)c34)ccc21" , write its reported %Inh.
Reply: 12%

Query: State, in one line, measured %Inh of "Nc1ncnc2scc(-c3ccc(NC(=O)Cc4cc(F)ccc4F)cc3)c12.O=C(O)C(F)(F)F"
Reply: 11%

Query: For the compound "Cc1ccc(NC(=O)c2ccc(Cl)c(Cl)c2)cc1-c1ccc(C(=O)Nc2ccncc2)cc1" , give its measured %Inh value.
Reply: 6%

Query: Please report the measured %Inh for "Cl.N#CCc1ccc(Nc2nccc(Nc3ccc(Oc4ccccc4)cc3)n2)cc1"
Reply: 11%

Query: Name the recorded %Inh of the compound listed here: "CCOc1nccc(-c2c(-c3ccc(F)cc3)ncn2C2CCNCC2)n1"
Reply: 47%

Query: Fill in %Inh for record "Cc1ccc(Nc2ccnc(Nc3ccc(C)c(F)c3)n2)cc1O.Cl"
Reply: 8%

Query: Please list %Inh recorded for the compound "CN(c1ccc(NC(=O)N2CCN(CCCN3CCOCC3)CC2)cc1)c1ccnc(Nc2ccc(CS(C)(=O)=O)cc2)n1.Cl"
Reply: 0%

Query: Return the recorded %Inh value; entry: "CN(C)c1ncnc2nc[nH]c12"
Reply: 0%

Query: Fill in %Inh for record "Cl.O=C(Nc1ccc(Oc2ccc3[nH]c(NC(=O)c4ccco4)nc3c2)cc1)Nc1cc(C(F)(F)F)ccc1F"
Reply: 8%

Query: Please indicate %Inh recorded for "O=C(Nc1n[nH]c2cc(-c3cccs3)ccc12)C1CC1"
Reply: 16%

Query: Give me measured %Inh, please, for this compound: "COc1cccc2c(-c3ccncc3)c(-c3ccc(F)cc3)nn12"
Reply: 7%

Query: Supply %Inh value. Item: "Cc1cccc(Nc2nc(N[C@H]3CCCC[C@H]3N)ncc2C(N)=O)c1.Cl"
Reply: 33%

Query: Hello, please tell me recorded %Inh for this one: "CN(C)CCNS(=O)(=O)c1ccc(-c2ccnc3[nH]ccc23)cc1"
Reply: 30%

Query: Report %Inh for Cc1ccc(-c2ccc3occ(-c4ccc(S(C)=O)cc4)c3c2)nn1 (stereo not shown)
Reply: 0%

Query: Item "CS(=O)(=O)c1cccc(CNc2nc(Nc3ccc4c(c3)CCC(=O)N4)ncc2C(F)(F)F)c1" : provide %Inh
Reply: 0%

Query: Read off the recorded %Inh for CC(C)NCC(Cc1ccccc1)NC(=O)c1cc(Br)c(-c2ccnc3[nH]ccc23)s1.Cl.Cl (stereo not shown)
Reply: 1%

Query: # return recorded %Inh for input "O=C(Nc1c(F)cccc1F)c1cc(C(=O)c2ccccc2F)c[nH]1"
Reply: 34%

Query: Give the value of %Inh reported for the following: Cl.Cl.NCC(NC(=O)c1cc(-c2cccnc2)c(-c2ccnc3[nH]ccc23)s1)c1ccccc1 (stereo not shown)
Reply: 17%

Query: Supply measured %Inh of "O=C(Nc1n[nH]c2nc(-c3cccc(O)c3)ccc12)C1CC1" in your reply.
Reply: 0%

###

- Tested on: IRAK1
- Assay setup: concentration: 1 μM, replicates: in singlicate; n = 1
Readout label: %Inh (%)
Write down the numeric answer in % and omit the unit.

Query: Consider the compound O=C(O)C(F)(F)F.O=c1[nH]ccc2nc(N[C@@H]3CCNC3)nc(Nc3cc(Cl)cc(Cl)c3)c12 [GSK2188764] tested on IRAK1; state its %Inh.
Reply: 90.1

Query: # return %Inh of COc1cccc(C2=C(Nc3cccc(O)c3)C(=O)NC2=O)c1 [SB-390771] (system: IRAK1)
Reply: 29

Query: # return %Inh of CN(c1ccc(NC(=O)Nc2cccc(Cl)c2)cc1)c1ccnc(N)n1.Cl [GW830707] (system: IRAK1)
Reply: 0

Query: Identify measured %Inh obtained with IRAK1 for Cc1ccc(NC(=O)c2cccc(N3CCCCC3)c2)cc1-c1ccc(C(=O)NCC2CC2)cc1 [GSK1917008] .
Reply: 17

###

- System: SYK
- Assay setup: concentration: 1 μM, replicates: in singlicate; n = 1
Kindly supply the reported %Inh values for the records listed here.
Report as a plain number; the unit % is understood.

Query: Name the recorded %Inh of the compound listed here: "CN(c1ccc(NC(=O)N2CCN(CCCN3CCOCC3)CC2)cc1)c1ccnc(Nc2ccc(CS(C)(=O)=O)cc2)n1.Cl"
Reply: 15

Query: In one line, give reported %Inh of the entry "O=C(O)C(F)(F)F.O=c1[nH]ccc2nc(N[C@@H]3CCNC3)nc(Nc3ccc4c(c3)S(=O)(=O)CC4)c12" .
Reply: 87

Query: Check the records and state %Inh for "Cc1cccc(Nc2nc(NCCN)ncc2C(N)=O)c1"
Reply: 97

Query: Answer with the recorded %Inh for the compound listed here: "CN1CCN(Cc2ccc(NC(=O)Nc3ccc(N(C)c4ccnc(Nc5ccc(CS(C)(=O)=O)cc5)n4)cc3)cc2)CC1.Cl"
Reply: 84

Query: For the compound "Nc1ncnc2scc(-c3ccc(NC(=O)Cc4cc(F)ccc4F)cc3)c12.O=C(O)C(F)(F)F" , give its reported %Inh.
Reply: 0

Query: # return recorded %Inh for entry "COc1ccc(C)c(Nc2ccnc(Nc3ccc(-c4cnc[nH]4)cc3)n2)c1.Cl"
Reply: 16

Query: Kindly indicate its recorded %Inh. Item: "Cc1ccc(O)cc1Nc1ccnc2cc(-c3ccc(CN4CCCCC4)o3)ccc12"
Reply: 69

Query: Check the records and state %Inh for "Nc1ncc(-c2cn[nH]c2)c2scc(-c3ccc4c(c3)CCN4C(=O)Cc3ccccc3)c12"
Reply: 25

###

- System: MTOR
- Assay setup: concentration: 1 μM, replicates: in singlicate; n = 1
Threshold-based label: %Inh under 30% gives rule met, %Inh not under 30% gives rule not met.

Query: Please state whether %Inh is below 30% for CN(C)c1ncnc2nc[nH]c12 [SKF-31736]
Reply: rule not met

Query: Quick check: %Inh of Cc1ccc(Nc2ccnc(Nc3ccc(C)c(F)c3)n2)cc1O.Cl [GW582868] under 30%?
Reply: rule met

Query: hey, is %Inh for CC(C)c1nc(-c2ccc(F)c(NS(=O)(=O)c3c(F)cccc3F)c2)c(-c2ccnc(Nc3ccc(N4CCOCC4)nc3)n2)s1 [GSK1804250] lower than 30% or not?
Reply: rule not met

Query: Record CCn1cnc2c(NCc3ccccc3)ncnc21 [SKF-96418] : is its %Inh strictly below 30%?
Reply: rule not met

Query: Field: below-cutoff. Rule: recorded %Inh strictly less than 30%. Subject: Cc1cccc(Nc2nc(N[C@H]3CCCC[C@H]3N)ncc2C(N)=O)c1.Cl [GSK986310]
Reply: rule met

Query: Please determine if Cn1cc(-c2ccc3c(c2)CCN3C(=O)Cc2cc(F)cc(F)c2F)c2c(N)ncnc21 [GSK2634140] is below 30% in terms of %Inh.
Reply: rule met

Query: Hello, is %Inh of the following compound strictly smaller than 30%? COc1cccc(-c2nc(-c3ccccc3)[nH]c2-c2ccncc2)c1 [SB-610250]
Reply: rule met

Query: %Inh strictly < 30% for this compound? Nc1ncc(-c2ccc3nccc(-c4ccncc4)c3c2)cc1S(=O)(=O)N1CCCCC1 [GSK1693850]
Reply: rule not met

Query: State whether 30% exceeds %Inh recorded for Nc1cccc(-c2ccc3c(N)n[nH]c3c2)c1 [GSK2193613] .
Reply: rule met
